- Target system: Cellular tumor antigen p53 (Homo sapiens)
- Test: Primary qHTS for small molecule compounds that upregulate eGFP-tagged delta133p53alpha (in N-terminal) cells. (AID 2060322);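 also: cells pre-induced with doxycycline then dosed without doxycycline; series mostly up to about 56 µM; 0% = DMSO vehicle and 100% = reference activator; nearly all actives have a fitted effect of over 75% in size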
- Particulars: NCI-H358 eGFP-delta133p53alpha fluorescence, 24 h; active compounds read high
Inconclusive results are not listed.
Measured quantity: activation (%)
Answers are plain numbers, in %.

Use these answered entries as a reference point.
>>> observed_measurement("O=C(O)Cc1nn(Cc2nc3cc(C(F)(F)F)ccc3s2)c(=O)c2nccnc12")
-6.33
>>> observed_measurement("O=C1CC(c2ccc([N+](=O)[O-])cc2)=NN1c1ccccc1")
-8.93
>>> observed_measurement("C[C@H]1C[C@H]2[C@@H]3CCC4=CC(=O)C=C[C@]4(C)[C@@H]3C(=O)C[C@]2(C)[C@@]1(O)C(=O)CO")
-19.3
>>> observed_measurement("O=C(NCCCNc1nc(Nc2cccc(NC(=O)N3CCCC3)c2)ncc1I)c1cccs1")
9.72
>>> observed_measurement("COC1=C(OC)C(=O)c2ccccc2C1=O")
-31

Provide activation for all items below, preserving their order.
1. COC(=O)C1(C)CCCC2(C)c3ccc(C(C)C)cc3C(O)C(O)C12 (stereo not given)
2. C=CC(C)(CCC=C(C)C)O[C@@H]1O[C@H](CO)[C@@H](O)[C@H](O)[C@H]1O (stereo not given in full)
3. C=C1CCC2C(C)(C)CC(=O)CC2(C)C1CCC(C)CCO (stereo not given)
4. NC(=O)C1=CN(C2OC(COP(=O)(O)OP(=O)(O)OC[C@H]3O[C@@H](n4cnc5c(N)ncnc54)[C@H](OP(=O)(O)O)[C@@H]3O)C(O)C2O)C=CC1 (stereo not given in full)
5. C=C1C(=O)O[C@@H]2/C=C(\C)CC/C=C(\C(=O)O[C@@H]3O[C@H](CO)[C@@H](O)[C@H](O)[C@H]3O)CC[C@@H]12
6. COc1ccc(-c2oc3c(CC=C(C)C)c(O)cc(O)c3c(=O)c2O)cc1

Marked response:
1. -14.3
2. 3.57
3. 6.25
4. -2.48
5. -5.36
6. -9.57

Provide activation for all items below, preserving their order.
1. CC1(C)O[C@]23C[C@H]1C[C@H](OC(=O)c1ccoc1)[C@]2(C)[C@@H](OC(=O)c1ccoc1)CCC3(C)O (stereo not given in full)
2. C=C1CCC2C(C)(C(=O)O)CC(O)CC2(C)C1CC/C(C)=C/C(=O)O (stereo not given)
3. CC1(C)[C@H]2C[C@H](C/C=C\CCCC(=O)O)[C@@H](NC(=O)c3csc4ccc(O)cc34)[C@@H]1C2
4. CN(C)C(=O)C(O)C(Cc1ccccc1)NC(=O)c1cc2cc(Cl)ccc2[nH]1 (stereo not given)

Marked response:
1: -5.34; 2: -9.92; 3: -4.77; 4: -1.43

Provide activation for all items below, preserving their order.
1. O=c1c(O)c(-c2ccc(O)cc2)oc2cc(O)cc(O)c12
2. CC(=O)OC1C(O)CC2(C)C(CCC(C)C23Cc2c(O)cc(CO)c(C=O)c2O3)C1(C)C (stereo not given)
3. CC[C@H]1OC(=O)[C@H](C)[C@@H](O[C@H]2C[C@@](C)(OC)[C@@H](O)[C@H](C)O2)[C@H](C)[C@@H](O[C@@H]2O[C@H](C)C[C@H](N(C)C)[C@@H]2O)[C@](C)(O)C[C@@H](C)CN(C)[C@H](C)[C@@H](O)[C@]1(C)O

Marked response:
1. 36.9
2. 6.87
3. 2.23

Provide activation for all items below, preserving their order.
1. CC(C)S(=O)(=O)NC[C@H](C)c1ccc(-c2ccc(CCNS(C)(=O)=O)cc2)cc1
2. O=C(O)[C@H]1O[C@H](Oc2cc3oc(-c4ccccc4)cc(=O)c3c(O)c2O)[C@H](O)[C@@H](O)[C@H]1O
3. CC1=C2CC3C(CCC3(C)O)C(C)(O)CC2OC1=O (stereo not given)
4. C=C1CCC2[C@](C)(CO)C(O)CC[C@]2(C)C1CC=C1C(=O)OCC1O (stereo not given in full)
5. c1ccc(CN2CCC3(CCCc4ccccc43)CC2)cc1
6. Oc1ccc(C2=Cc3ccc(O)cc3OC2)cc1
7. C[C@@H](O)[C@H](NC(=O)c1ccc(C#Cc2ccc(CN3CCOCC3)cc2)cc1)C(=O)NO

Marked response:
1: -5.73; 2: 28.4; 3: -2.68; 4: -28.9; 5: -56.7; 6: 5.86; 7: -6.68
